For each entry below, report its activation value.
METHOD_NOTES: potentiators of TNFa-induced VCAM1 expression, primary screen, imaging, HUVEC, TNFa stimulus, immunofluorescence (AID 808);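 note: signal is the number of cytoplasmic VCAM-1 stained grains per positive cell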
APPLIED_CONDITIONS: HUVEC TNFa-stimulated VCAM-1 immunofluorescence, high-content imaging; at 2 µM; stronger effect = higher value; scaled per plate to unstimulated/TNFa-only wells
Screen size: about 93,000 compounds; about 180 (0.19%) were called active. The sample as a whole holds a higher share of actives than the screen did.

## Input activation lookup needed for COc1ccc2c(c1)C=CC1(O2)N(CCO)c2ccccc2C1(C)C (stereo not given) , thanks.
## Output 1.4% (inactive)

## Input activation lookup needed for O=C1CC(Sc2ncn[nH]2)C(=O)N1c1ccccc1 (stereo not given) , thanks.
## Output 4.7% (inactive)

## Input activation lookup needed for `CC(C)Nc1nc(N(c2ccccc2)c2ccccc2)nc(-n2ccnc2)n1` , thanks.
## Output 3.2% (inactive)

## Input activation lookup needed for `Cc1cccc(Cn2c(SCCO)nc3c2c(=O)n(C)c(=O)n3C)c1` , thanks.
## Output -4.1% (inactive)

## Input activation lookup needed for `CC(=O)c1cnn(-c2cc(Oc3ccc(F)cc3)ncn2)c1C` , thanks.
## Output 50.8% (active)

## Input activation lookup needed for `CN1CCN(c2nc3c(c(=O)[nH]c(=O)n3C)n2Cc2cccc3ccccc23)CC1` , thanks.
## Output -8.9% (inactive)

## Input activation lookup needed for O=C(c1ccco1)N1CCN(CC(=O)N(C2CCCCC2)C2CCS(=O)(=O)C2)CC1 (stereo not given) , thanks.
## Output -39.3% (inactive)

## Input activation lookup needed for `O=C(Nc1ccc(Sc2ccc(Br)cc2)cc1)c1ccco1` , thanks.
## Output -2.8% (inactive)

## Input activation lookup needed for `Cc1[nH]c2ccccc2c1C(=O)CSCC(=O)O` , thanks.
## Output 4.2% (inactive)

## Input activation lookup needed for CC(C)OC(=O)c1cc(NC(=O)C2C3CCC(O3)C2C(=O)O)cc(C(=O)OC(C)C)c1 (stereo not given) , thanks.
## Output 15.7% (inactive)

## Input activation lookup needed for `COc1ccc(-c2c3c(=O)n(C)c(=O)n(C)c3cn2-c2cccc(OC)c2)cc1` , thanks.
## Output -7.7% (inactive)

## Input activation lookup needed for `Cc1ccc(CNC(=O)CCCNC(=O)c2ccc(Cl)cc2)n1C` , thanks.
## Output 7.4% (inactive)

## Input activation lookup needed for `Cc1ccc(C(=O)Nc2ccc3c(c2)OCO3)cc1S(=O)(=O)N1CCCCC1` , thanks.
## Output 7.1% (inactive)

## Input activation lookup needed for COCCOC(=O)C1=C(C)N=c2s/c(=C\c3cccs3)c(=O)n2C1c1cccs1 (stereo not given) , thanks.
## Output -3.2% (inactive)

## Input activation lookup needed for `Cc1c(C(=O)OCC(=O)N(CCC#N)c2ccccc2)oc2c1ccc1ccccc12` , thanks.
## Output -4.9% (inactive)

## Input activation lookup needed for CCC(=O)c1ccc(OCC(O)CN2CCN(c3cccc(C(F)(F)F)c3)CC2)cc1 (stereo not given) , thanks.
## Output 4.1% (inactive)

## Input activation lookup needed for `NS(=O)(=O)c1cccnc1Nc1cccc(Cl)c1` , thanks.
## Output 4.4% (inactive)

## Input activation lookup needed for CC1(C)OC(=O)N2CCc3ccccc3C21C (stereo not given) , thanks.
## Output 0.2% (inactive)

## Input activation lookup needed for `CCOC(=O)N1CCC(NC(=O)c2ccc3nc(N4CCOCC4)sc3c2)CC1` , thanks.
## Output -2.2% (inactive)

## Input activation lookup needed for `O=[N+]([O-])c1ccccc1/C=N/n1c(COc2ccccc2)n[nH]c1=S` , thanks.
## Output -14.7% (inactive)

## Input activation lookup needed for `Cc1cnc(NC(=O)C2CCCC2)s1` , thanks.
## Output -57.6% (inactive)

## Input activation lookup needed for `CCCCN(C)C(=O)C1CCN(Cc2ccccn2)CC1` , thanks.
## Output 35.5% (active)

## Input activation lookup needed for `C=CCn1c(N)c(C(=O)OCC(C)C)c2nc3ccccc3nc21` , thanks.
## Output -94.4% (inactive)

## Input activation lookup needed for `Oc1ccc2nc(Cc3ccccc3)[nH]c2c1` , thanks.
## Output 5.6% (inactive)

## Input activation lookup needed for `CCN(CC(=O)NC(C)C)C(=O)CCNC(=O)c1ccc(Cl)cc1` , thanks.
## Output -9.6% (inactive)

## Input activation lookup needed for `Cc1ccc(F)cc1NC(=O)c1ccc2c(c1)OCO2` , thanks.
## Output -96.8% (inactive)

## Input activation lookup needed for `Cn1cc([N+](=O)[O-])c(C(=O)Nc2ccc3c(c2)OCCO3)n1` , thanks.
## Output -36.8% (inactive)

## Input activation lookup needed for `COc1cccc(C(=O)Nc2ccc(NC(=O)c3ccco3)cn2)c1` , thanks.
## Output 8.2% (inactive)

## Input activation lookup needed for O=C(Nc1ncc2c(n1)CC(c1ccco1)CC2=O)c1ccc(Cl)cc1 (stereo not given) , thanks.
## Output -91.4% (inactive)

## Input activation lookup needed for C=C(Cl)COC(=O)C1C2C=CC(C2)C1C(=O)O (stereo not given) , thanks.
## Output 12.1% (inactive)

## Input activation lookup needed for `CCN(CC(=O)Nc1ccc2c(c1)OCCO2)Cc1cc(=O)oc2cc(C)c(C)cc12` , thanks.
## Output 54.4% (active)

## Input activation lookup needed for `O=C(NCc1cccnc1)Nc1ccccc1F` , thanks.
## Output 10.6% (inactive)

## Input activation lookup needed for `Cn1c(=O)n(C)c2cc(CNc3ccc(N4CCOCC4)c(C(=O)O)c3)ccc21` , thanks.
## Output -26.1% (inactive)

## Input activation lookup needed for Cn1c(C(=O)OC(C(=O)NC2CCCCC2)c2ccccn2)cc2sccc21 (stereo not given) , thanks.
## Output 7.6% (inactive)

## Input activation lookup needed for CCN(CC)C(=O)CSC1c2ccccc2C(=O)N1c1ccccc1 (stereo not given) , thanks.
## Output -7.1% (inactive)

## Input activation lookup needed for CCc1ccc2oc(=O)cc(CN3CCCCC3C)c2c1 (stereo not given) , thanks.
## Output -6.7% (inactive)

## Input activation lookup needed for `COc1cc(-c2nc(-c3ccncc3)no2)cc(OC)c1OC` , thanks.
## Output 1.5% (inactive)

## Input activation lookup needed for `CCOC(=O)N1CCN(C(=O)CN(c2ccc(C)c(C)c2)S(=O)(=O)c2ccccc2)CC1` , thanks.
## Output 0.5% (inactive)

## Input activation lookup needed for `CN(C)S(=O)(=O)c1ccc(N2CCCC2)c(C(=O)NCc2ccccc2)c1` , thanks.
## Output -5.1% (inactive)

## Input activation lookup needed for `COc1ccc(OC)c(N=Cc2c(O)[nH]c3ccccc23)c1` , thanks.
## Output 41.3% (active)

## Input activation lookup needed for COc1ccc(C(C(=O)NCc2ccccc2)N(Cc2cccs2)C(=O)c2cnccn2)cc1 (stereo not given) , thanks.
## Output -2.8% (inactive)

## Input activation lookup needed for `CCOC(=O)CSc1nc2c(c(=O)n(C)c(=O)n2C)n1Cc1ccccc1F` , thanks.
## Output -0.2% (inactive)

## Input activation lookup needed for `CCOCc1nnc(NC(=O)CSc2ccc(C)cc2)s1` , thanks.
## Output 5.6% (inactive)

## Input activation lookup needed for `O=C(NCCN1CCOCC1)[C@H](Cc1ccccc1)N1C(=O)c2ccccc2C1=O` , thanks.
## Output -8.5% (inactive)

## Input activation lookup needed for Cc1ccc(OCC(O)CN2CCN(CC(O)COc3ccc(C)cc3Cl)CC2)c(Cl)c1 (stereo not given) , thanks.
## Output -1.2% (inactive)
